assay: Biodistribution in B16/F1 melanoma-bearing C57 mice; format: in vivo; conditions: female, C57, mouse, stomach, iv, 0.037 MBq, total radioactivity, 2 h post-injection; read-out: Stomach uptake
Measure: tissue uptake at 2 h (%ID/g)
One number for each entry, in %ID/g.

INPUT: What does the data say about its tissue uptake at 2 h? Entry: CCCC[C@H](NC(=O)CN1CCN(CC(=O)O)CCN(CC(=O)O)CCN(CC(=O)O)CC1)C(=O)N[C@H]1CC(=O)NCCCC[C@@H](C(N)=O)NC(=O)[C@H](Cc2c[nH]c3ccccc23)NC(=O)[C@H](CCCNC(=N)N)NC(=O)[C@@H](Cc2ccccc2)NC(=O)[C@H](Cc2c[nH]cn2)NC1=O [^111In-DOTA-Nle-CycMSHhex, metal not drawn]
OUTPUT: 1.25
